- measurementSetup: Subject S-015; Mean ± SD of 3 independent measurements
Consider the following compounds; for each one, report its Amount in urine collected for 10 h after consumption of cooked beef.
Give bare numbers, in ng.

[[record]]
smi = "Cn1c(N)nc2ncc(-c3ccccc3)cc21"
observedvalue = 8.2

[[record]]
smi = "Cn1c(N)nc2ncc(-c3ccc(O)cc3)cc21"
observedvalue = 18.3

[[record]]
smi = "Cc1cnc2ccc3c(nc(N)n3C)c2n1"
observedvalue = 39.2

[[record]]
smi = "Cn1c(N(O)[C@@H]2O[C@H](C(=O)O)[C@@H](O)[C@H](O)[C@H]2O)nc2ncc(-c3ccccc3)cc21"
observedvalue = 2067


# ---- query compound ----
Query: Tell me the measured Amount in urine collected for 10 h after consumption of cooked beef of Cn1c(=NO)n([C@@H]2O[C@H](C(=O)O)[C@@H](O)[C@H](O)[C@H]2O)c2ncc(-c3ccccc3)cc21 , please.
Reply: 216
